The measured values listed here are drawn from patent US20100273806A1.

experimental_target: S1P1 receptor (Homo sapiens)
Sequence (P21453 whole entry): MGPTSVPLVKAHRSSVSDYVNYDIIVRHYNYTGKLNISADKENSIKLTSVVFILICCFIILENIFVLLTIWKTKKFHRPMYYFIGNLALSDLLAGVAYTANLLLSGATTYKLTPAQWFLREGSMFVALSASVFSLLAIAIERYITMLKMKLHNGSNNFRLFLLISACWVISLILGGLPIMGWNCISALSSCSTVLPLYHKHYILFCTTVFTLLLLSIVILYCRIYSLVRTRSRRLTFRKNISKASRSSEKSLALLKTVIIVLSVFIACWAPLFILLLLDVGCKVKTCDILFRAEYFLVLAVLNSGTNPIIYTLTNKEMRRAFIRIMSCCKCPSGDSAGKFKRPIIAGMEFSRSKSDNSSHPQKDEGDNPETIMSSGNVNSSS
test_protocol: HTRF assay for direct cAMP measurement (S1P1 receptor agonists)
condition_summary: recombinant CHO-K1 cells stably transfected with S1P1 receptor; decrease of cAMP concentration
measured_metric: log10(EC50) (log10 of the value in nM)

{"molecule": "O=C(O)CC1CCc2c1[nH]c1ccc(-c3noc(-c4ccc(OCC(F)(F)F)nc4)n3)cc21 (stereo not shown)", "experimental_target": "S1P1 receptor (Homo sapiens)", "reported_measurement": 1.92}
{"molecule": "NC(=O)c1cc(OC(F)(F)F)cc(-c2nc(-c3ccc4[nH]c5c(c4c3)CCC5CC(=O)O)no2)c1 (stereo not shown)", "experimental_target": "S1P1 receptor (Homo sapiens)", "reported_measurement": 2.36}
{"molecule": "CCOc1ncc(-c2nc(-c3ccc4[nH]c5c(c4c3)CCC5CC(=O)O)no2)cc1C (stereo not shown)", "experimental_target": "S1P1 receptor (Homo sapiens)", "reported_measurement": 2.32}
{"molecule": "COc1ccc(-c2nc(-c3ccc4[nH]c5c(c4c3)CCC5CC(=O)O)no2)cc1C(F)(F)F (stereo not shown)", "experimental_target": "S1P1 receptor (Homo sapiens)", "reported_measurement": 1.97}
{"molecule": "N#Cc1cc(-c2nc(-c3ccc4[nH]c5c(c4c3)CCC5CC(=O)O)no2)ccc1OC1CCCC1 (single isomer, unassigned)", "experimental_target": "S1P1 receptor (Homo sapiens)", "reported_measurement": 1.27}
{"molecule": "N#Cc1cc(OCCF)cc(-c2nc(-c3ccc4[nH]c5c(c4c3)CCC5CC(=O)O)no2)c1 (stereo not shown)", "experimental_target": "S1P1 receptor (Homo sapiens)", "reported_measurement": 1.63}
{"molecule": "O=C(O)CC1CCc2c1[nH]c1ccc(-c3noc(-c4cc(C(F)(F)F)cc(C(F)(F)F)c4)n3)cc21 (stereo not shown)", "experimental_target": "S1P1 receptor (Homo sapiens)", "reported_measurement": 1.88}
